Molecular target: human LTBR on cells (human, UniProt P36941 31-435)
Test: cell-based or functional assay
I'd be grateful if you could share measured NFκB luc, 3750 ng/ml, w/o x linker for these entries.
Answers are plain numbers, in RLU.

Example entries and their recorded answers appear below.
{"columns": ["Binder", "Readout kind", "Result value"],
 "data": [
  ["P1AE9450 (antibody, human IgG1, kappa, L234A L235A, V domains shown, human IgG1 PG LALA; from transgenic rabbit immunization; also called LTBR (9450)) VH: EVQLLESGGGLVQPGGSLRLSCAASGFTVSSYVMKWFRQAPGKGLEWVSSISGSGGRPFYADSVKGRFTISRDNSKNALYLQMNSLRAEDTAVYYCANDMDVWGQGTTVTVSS VL: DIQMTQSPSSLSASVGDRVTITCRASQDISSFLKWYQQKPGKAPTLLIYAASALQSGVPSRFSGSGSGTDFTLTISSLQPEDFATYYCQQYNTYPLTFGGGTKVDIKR", "NFκB luc, 3750 ng/ml, w/o x linker", 17300],
  ["P1AF0064 (antibody, human IgG1, kappa, L234A L235A, V domains shown, human IgG1 PG LALA constant regions; V domains from rat immunization; also called LTBR (0064)) VH: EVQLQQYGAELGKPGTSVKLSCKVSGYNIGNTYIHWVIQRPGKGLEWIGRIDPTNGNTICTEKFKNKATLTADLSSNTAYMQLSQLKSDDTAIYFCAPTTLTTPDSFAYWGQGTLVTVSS VL: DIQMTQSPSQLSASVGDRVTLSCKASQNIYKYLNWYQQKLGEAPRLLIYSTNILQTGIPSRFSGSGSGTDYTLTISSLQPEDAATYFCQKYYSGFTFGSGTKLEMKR", "NFκB luc, 3750 ng/ml, w/o x linker", 25500],
  ["P1AF0079 (antibody, human IgG1, kappa, L234A L235A, V domains shown, human IgG1 PG LALA; from transgenic rabbit immunization; also called LTBR (0079)) VH: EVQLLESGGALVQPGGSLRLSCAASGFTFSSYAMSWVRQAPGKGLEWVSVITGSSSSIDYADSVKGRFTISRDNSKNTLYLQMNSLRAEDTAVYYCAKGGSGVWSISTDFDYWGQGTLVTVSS VL: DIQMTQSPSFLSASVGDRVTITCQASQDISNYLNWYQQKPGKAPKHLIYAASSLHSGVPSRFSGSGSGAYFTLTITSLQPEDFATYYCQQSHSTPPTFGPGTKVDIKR", "NFκB luc, 3750 ng/ml, w/o x linker", 14800],
  ["P1AE9452 (antibody, human IgG1, kappa, L234A L235A, V domains shown, human IgG1 PG LALA; from transgenic rabbit immunization; also called LTBR (9452)) VH: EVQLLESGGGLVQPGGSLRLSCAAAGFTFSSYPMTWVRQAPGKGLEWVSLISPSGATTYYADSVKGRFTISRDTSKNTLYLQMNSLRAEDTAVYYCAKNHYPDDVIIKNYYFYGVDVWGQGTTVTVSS VL: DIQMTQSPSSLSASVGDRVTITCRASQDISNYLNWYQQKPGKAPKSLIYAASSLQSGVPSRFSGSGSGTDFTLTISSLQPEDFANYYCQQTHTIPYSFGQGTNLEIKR", "NFκB luc, 3750 ng/ml, w/o x linker", 17300]
]}

In: I'd like to know its NFκB luc, 3750 ng/ml, w/o x linker. The binder in question is P1AE9459 (antibody, human IgG1, kappa, L234A L235A, V domains shown, human IgG1 PG LALA; from transgenic rabbit immunization) VH: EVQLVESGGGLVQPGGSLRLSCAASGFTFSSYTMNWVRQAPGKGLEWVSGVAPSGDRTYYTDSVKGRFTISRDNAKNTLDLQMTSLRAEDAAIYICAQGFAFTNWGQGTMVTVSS VL: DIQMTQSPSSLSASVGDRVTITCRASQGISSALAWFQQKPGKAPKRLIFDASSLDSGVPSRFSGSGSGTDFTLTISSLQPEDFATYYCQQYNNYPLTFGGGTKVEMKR
Out: 25200
